tgt: HLA-A*69:01
assay_explanation: IEDB peptide-MHC binding, purified MHC/direct/fluorescence; filed as Kd, often an IC50 or EC50 that approximates it; bounds were set here for any values at or beyond the usual limits of such assays
setup_conditions: source organism: Influenza A virus (A/Viet Nam/HN/2004(H5N1))
pKd: −log10 of the molar value.
measurement_type: pKd

// recorded pKd for `VHFRNQVKI` : ≤ 4.70

---

tgt: HLA-A*31:01
assay_explanation: IEDB peptide-MHC binding, purified MHC/competitive/radioactivity; filed as Kd, often an IC50 or EC50 that approximates it; bounds were set here for any values at or beyond the usual limits of such assays
setup_conditions: source organism: Mammarenavirus lassaense
pKd: −log10 of the molar value.
Give pKd for every item shown.

# count of solved cases: 2
- DSCNANGCEH: ≤ 4.15
- ITFFQEVPH: 5.09

Moving on to another sequence below.
// recorded pKd for `TCQGSEDIK` : ≤ 4.21

---

tgt: HLA-A*69:01
assay_explanation: IEDB peptide-MHC binding, purified MHC/competitive/fluorescence; filed as Kd, often an IC50 or EC50 that approximates it; bounds were set here for any values at or beyond the usual limits of such assays
setup_conditions: source organism: Brucella suis ATCC 23445
measurement_type: Kd

Assay HLA-A*69:01, sample `ITAVNRYFK` , Kd read: ≥ 20 µM

---

tgt: HLA-A*02:01
assay_explanation: IEDB peptide-MHC binding, purified MHC/competitive/fluorescence; filed as Kd, often an IC50 or EC50 that approximates it; bounds were set here for any values at or beyond the usual limits of such assays
setup_conditions: source organism: Escherichia coli O139:H28 str. E24377A
measurement_type: pKd
One number for each entry, as −log10 of the molar value.

// recorded pKd for `LLPFGQLSI` : 6.83

---

tgt: HLA-B*27:05
assay_explanation: IEDB peptide-MHC binding, purified MHC/direct/fluorescence; filed as Kd, often an IC50 or EC50 that approximates it; bounds were set here for any values at or beyond the usual limits of such assays
setup_conditions: source organism: Shigella flexneri
measurement_type: Kd

// recorded Kd for `VVISKKDTY` : ≥ 20 µM

---

tgt: HLA-B*15:01
assay_explanation: IEDB peptide-MHC binding, purified MHC/competitive/fluorescence; filed as Kd, often an IC50 or EC50 that approximates it; bounds were set here for any values at or beyond the usual limits of such assays
setup_conditions: source organism: Salmonella enterica subsp. enterica serovar Typhi
pKd: −log10 of the molar value.
measurement_type: pKd

// recorded pKd for `MEDNFSIYI` : ≤ 4.70

---

tgt: HLA-B*44:02
assay_explanation: IEDB peptide-MHC binding, purified MHC/competitive/radioactivity; filed as Kd, often an IC50 or EC50 that approximates it; bounds were set here for any values at or beyond the usual limits of such assays
setup_conditions: source organism: Dengue virus 1 Singapore/S275/1990
measurement_type: pKd
One number for each entry, as −log10 of the molar value.

Assay HLA-B*44:02, sample `HEHKSTWHY` , pKd read: 7.70

---

tgt: HLA-A*11:01
assay_explanation: IEDB peptide-MHC binding, purified MHC/direct/fluorescence; filed as Kd, often an IC50 or EC50 that approximates it; bounds were set here for any values at or beyond the usual limits of such assays
setup_conditions: source organism: Dengue virus 1 Singapore/S275/1990
measurement_type: Kd (nM)
Give bare numbers, in nM.

// recorded Kd for `AVSMANIFR` : 8.9

Data origin: the Immune Epitope Database (IEDB)
